Data provenance is patent US10493158B2.

- Test Description: Dog bioavailability study (PK after single oral administration of capsules)
- Type: in vivo, beagle dogs
- Run Conditions: male, beagle, dog, plasma, po, 100 mg/kg, male beagle dogs, single oral administration, capsules, dose 100 mg/kg; read-out: Exposure AUC
Experimental Readout: AUC
I'd appreciate it if you wrote the number followed by its unit.

Look up AUC for this molecule: O=C(Nc1nc2cccc(-c3ccc(CN4CCS(=O)(=O)CC4)cc3)n2n1)C1CC1
11100 ng·h/mL

###

- Test Description: Thermodynamic aqueous solubility by HPLC
- Type: physicochemical
- Run Conditions: water
Where a name gives a salt, the structure may show the parent alone.
Experimental Readout: solubility (µg/mL)
Give the quantity in µg/mL, number only.

Field request: solubility | item: O=C(Nc1nc2cccc(-c3ccc(CN4CCS(=O)(=O)CC4)cc3)n2n1)C1CC1 [hydrochloric acid salt of Compound 1]
1900
